Documented composite z-score across a set of compounds
EXPERIMENT SUMMARY: compound binding in COS7 lysate, probe aLAP1, primary screen, cell lysate, small-molecule microarray (AID 1124);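 also: lysate comes from COS7 cells expressing LAP1 and is applied at 0.3 µg/mL; score merges spot fluorescence near 667 nm with signal-to-noise over triplicate slides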
ASSAY SETUP: probe aLAP1, fluorescence, higher = more signal
Answer field: number only, no words.

The cases that follow already have their composite z-score on record.
C/C=C/CN(C(=O)C#Cc1ccccc1)[C@H](CO[Si](C)(C)C(C)(C)C)c1ccccc1    -0.155
CCCC[C@H]1OB(O)C[C@H]2C1=C(COC)C[C@H]1C(=O)C=CC(=O)[C@H]12    -0.236
CCCCN1CC=CC23O[C@@H]4/C=C\CCC(C)OC(=O)C4[C@H]2C(=O)N(C(C)CO)[C@@H]3C1=O (stereo not given in full)    0.103
CC(C)C[C@H]1NC(=O)[C@@H](C)NC(=O)[C@@]23C(=O)N[C@@H](Cc4ccccc4)C2[C@H](C)[C@@]2(C)O[C@H]2C3/C=C/C/C=C\CNC1=O (stereo not given in full)    -0.0995
CCOC(=O)C1=CC[C@@H](c2ccccc2Cl)N(S(=O)(=O)c2ccc(C)cc2)[C@H]1c1cccc(OC)c1    -0.151

Form: compound = C=CCOC(=O)[C@H]1[C@@H]2C(=O)O[C@@H](c3ccccc3)[C@@H](c3ccccc3)N2[C@@H](c2ccc(OCCOC(=O)[C@@H]3C[C@@H]4C(=O)N[C@@H](Cc5ccccc5)C(=O)N4[C@@H]3c3ccc(O)cc3)cc2)[C@]12C(=O)Nc1ccccc12 ; composite z-score = 0.509

Noted for CCCCCCc1nc(-c2ccc(OC)nc2)cc2c1[Si](C(C)C)(C(C)C)OC2 : its composite z-score reads -0.293

Measured composite z-score, CCOC(=O)C1=CC[C@@H](c2ccccc2)N(S(=O)(=O)C[Si](C)(C)C)[C@H]1c1ccccc1 : -0.203

The reported composite z-score of the compound CC(=O)NCCCC[C@@H]1NC(=O)[C@H]2C[C@@H](C(=O)NCCCCCC[N+](C)(C)C)[C@@H](c3ccc(O)cc3)N2C1=O was 0.527

Reported composite z-score for COCCCNC(=O)[C@@H]1c2ccccc2C(=O)N(Cc2cc(C(F)(F)F)cc(C(F)(F)F)c2)[C@H]1c1ccc(CO)cc1 was -0.182

Record summary for CC(C)C[C@@H]1NC(=O)[C@@H]2C[C@H](C(=O)NCCCC[N+](C)(C)C)[C@H](c3ccc(O)cc3)N2C1=O : reported composite z-score = 0.678

Field composite z-score (entry C[C@@H](OCc1ccccc1)C1NC(=O)[C@@]23C(=O)N[C@@H](Cc4ccccc4)C2[C@H](C)[C@@]2(C)O[C@H]2C3/C=C/C/C=C\CNC(=O)[C@H](Cc2ccccc2)NC1=O (stereo not given in full) ) reads -0.149

Entry O=C1OCCC/C=C\[C@H]2OC34C=CCN(Cc5ccccc5)C(=O)[C@H]3N(CCCCCO)C(=O)[C@@H]4C12 (stereo not given in full) , composite z-score reported as 1.65

composite z-score in this record for CN(C)CCCCNC(=O)[C@H]1C[C@H]2C(=O)NCC(=O)N2[C@H]1c1cccc(OCCO)c1 : -0.235

Consider O=C1O[C@H](c2ccccc2)[C@H](c2ccccc2)N2[C@H]1[C@@H](C(=O)N1CCN(c3ncccn3)CC1)[C@]1(C(=O)Nc3ccccc31)[C@H]2c1ccc(O)cc1 . Its measured composite z-score is 0.445
